Measured MIC accompanies every entry in the list below.
system: Klebsiella sp. 8085
// return numeric value only (unit: µg/mL, not printed)

Record excerpt, results attached:
COMPOUND: CC1COc2c(N3C[C@H]4[C@H](N)CC=C[C@@H]4C3)c(F)cc3c(=O)c(C(=O)O)cn1c23 (stereo partly shown)
MEASURED ON: Klebsiella sp. 8085
ENDPOINT UNIT: µg/mL
MIC: 0.125
//
COMPOUND: N[C@@H]1CC=C[C@@H]2CN(c3c(F)cc4c(=O)c(C(=O)O)cn(C5CC5)c4c3F)C[C@@H]12 (relative stereo)
MEASURED ON: Klebsiella sp. 8085
ENDPOINT UNIT: µg/mL
MIC: 0.015
//
COMPOUND: CN[C@@H]1CC=C[C@@H]2CN(c3c(F)cc4c(=O)c(C(=O)O)cn(C5CC5)c4c3F)C[C@H]21 (relative stereo)
MEASURED ON: Klebsiella sp. 8085
ENDPOINT UNIT: µg/mL
MIC: 0.06
//
COMPOUND: Nc1c(F)c(N2C[C@H]3[C@H](N)CC=C[C@@H]3C2)c(F)c2c1c(=O)c(C(=O)O)cn2C1CC1 (relative stereo)
MEASURED ON: Klebsiella sp. 8085
ENDPOINT UNIT: µg/mL
MIC: 0.03
//
COMPOUND: N[C@@H]1CC=C[C@@H]2CN(c3cc4c(cc3F)c(=O)c(C(=O)O)cn4C3CC3)C[C@@H]12 (relative stereo)
MEASURED ON: Klebsiella sp. 8085
ENDPOINT UNIT: µg/mL
MIC: 0.03
//
COMPOUND: Nc1cccc2c1CN(c1c(F)cc3c(=O)c(C(=O)O)cn(C4CC4)c3c1F)C2 [*, reference compound]
MEASURED ON: Klebsiella sp. 8085
ENDPOINT UNIT: µg/mL
MIC: 4

In the following, a different compound is considered.
Bench note, Klebsiella sp. 8085: N[C@@H]1CC=C[C@@H]2CN(c3c(F)cc4c(=O)c(C(=O)O)cn(C5CC5)c4c3Cl)C[C@@H]12 (relative stereo) , MIC reads 0.015
